Some compounds, each annotated with its measured Efficacy (%) (confirmatory screen).
- Tested system: CIB1 and αIIb interaction (CIB1-GST : F-αIIb peptide) (Homo sapiens, UniProt Q99828)
- Construct: made in house; host or cells: BL-21 plus RIL cells (E. coli)
- Sequence (Q99828 whole entry): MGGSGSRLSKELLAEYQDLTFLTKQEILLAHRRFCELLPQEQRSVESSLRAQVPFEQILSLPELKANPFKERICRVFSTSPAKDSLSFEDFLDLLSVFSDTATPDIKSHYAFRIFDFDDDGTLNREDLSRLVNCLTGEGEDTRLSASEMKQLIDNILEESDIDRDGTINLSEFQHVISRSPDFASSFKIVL
- Protocol details: FP assay, 1536-well qHTS format (primary and confirmatory screen)
- Type: binding
- Test settings: Table S3, confirmatory screen; negative = inhibition
Write the answer as a number in %, unit excluded.

Consider the following illustrative entries.
{"Compound": "Nc1cccc2c1C(=O)N(C1CCC(=O)NC1=O)C2=O (centres unmarked) [NCGC00346551-01]", "Output unit": "%", "Readout value": -78}
{"Compound": "Nc1ccc(O)c(C(=O)O)c1 [NCGC00016344-07]", "Output unit": "%", "Readout value": -27}
{"Compound": "O=C(Nc1ccc(S(=O)(=O)N2CCOCC2)cc1)c1cc(Cl)ccc1NS(=O)(=O)c1ccc(Cl)s1.O=C(O)C(F)(F)F [NCGC00249417-01]", "Output unit": "%", "Readout value": -31}
{"Compound": "N#Cc1ccc(NS(=O)(=O)c2ccc(NC(=O)Cc3ccc(Cl)c(Cl)c3)cc2)cc1.O=C(O)C(F)(F)F [NCGC00253445-01]", "Output unit": "%", "Readout value": 146}
{"Compound": "COC(=O)c1ccc(O)c2ncc(-c3ccc(C(=O)NCCCN(C)C)cc3)cc12.O=C(O)C(F)(F)F [NCGC00189510-01]", "Output unit": "%", "Readout value": -26}

Record Cc1ccccc1NC(=O)CN1C(=O)N/C(=C\c2cn(-c3cccc(C(=O)O)c3)cn2)C1=O [NCGC00182400-01] , field Efficacy (%) (confirmatory screen): -21

// Efficacy (%) (confirmatory screen) lookup, compound = C[C@@H](NCc1cc2ccccc2[nH]1)c1cccc2ccccc12.Cl [NCGC00344505-01] , result: -25

The recorded Efficacy (%) (confirmatory screen) for entry COc1ccc2[nH]c([S+]([O-])Cc3ncc(C)c(OC)c3C)nc2n1 (centres unmarked) [NCGC00386399-04] equals -44

In plain terms, COc1ccc(-n2ncc3c2CCCC3NC(=O)c2ccccc2Cl)cc1.O=C(O)C(F)(F)F (centres unmarked) [NCGC00273443-01] has a documented Efficacy (%) (confirmatory screen) of -11

compound O=C(O)C(F)(F)F.O=C1Nc2ccccc2/C1=N/NC(=S)Nc1ccc(Oc2ccccc2)cc1 [NCGC00229524-01] , Efficacy (%) (confirmatory screen) observed: -29

Notebook: CC(=O)NC(Cc1ccccc1)C(=O)O (centres unmarked) [NCGC00042134-05] , Efficacy (%) (confirmatory screen) read as 0

Hey, just so you know, these numbers are from paper PMC11249646.
